B1: HEEH_KT_rd6_3546 (parent)
chain: SEEDKEREHWERLNRDFELRVLDTTFIAHHAEEVIKLLRWLEK

Variants of: B1
protocol: folding stability dG (cDNA display proteolysis); higher = more stable
stated.conditions: PBS, room temperature

- mutant.id: "D23T"
  units: "kcal/mol"
  folding stability dG: 2.27
- mutant.id: "L41R"
  units: "kcal/mol"
  folding stability dG: 0.586
- mutant.id: "T25S"
  units: "kcal/mol"
  folding stability dG: 1.52
- mutant.id: "L13N"
  units: "kcal/mol"
  folding stability dG: 1.43
- mutant.id: "N14H"
  units: "kcal/mol"
  folding stability dG: 1.58
- mutant.id: "L41K"
  units: "kcal/mol"
  folding stability dG: 0.491
- mutant.id: "K5E"
  units: "kcal/mol"
  folding stability dG: 1.39
- mutant.id: "F17R"
  units: "kcal/mol"
  folding stability dG: 0.912
- mutant.id: "L41D"
  units: "kcal/mol"
  folding stability dG: -0.253
- mutant.id: "W10Q"
  units: "kcal/mol"
  folding stability dG: 1.25
- mutant.id: "T24K"
  units: "kcal/mol"
  folding stability dG: 1.07
- mutant.id: "L38K"
  units: "kcal/mol"
  folding stability dG: 0.405
- mutant.id: "V34G"
  units: "kcal/mol"
  folding stability dG: 0.3
- mutant.id: "V21T"
  units: "kcal/mol"
  folding stability dG: 1.27
- mutant.id: "L19R"
  units: "kcal/mol"
  folding stability dG: 1.21
- mutant.id: "L38A"
  units: "kcal/mol"
  folding stability dG: 0.316
- mutant.id: "E11Q"
  units: "kcal/mol"
  folding stability dG: 1.73
- mutant.id: "H29A"
  units: "kcal/mol"
  folding stability dG: 1.49
- mutant.id: "W10S"
  units: "kcal/mol"
  folding stability dG: 1.17
- mutant.id: "E33H"
  units: "kcal/mol"
  folding stability dG: 1.41
- mutant.id: "I27P"
  units: "kcal/mol"
  folding stability dG: 0.57
- mutant.id: "A28I"
  units: "kcal/mol"
  folding stability dG: 1.82
- mutant.id: "E3I"
  units: "kcal/mol"
  folding stability dG: 1.56
- mutant.id: "L41S"
  units: "kcal/mol"
  folding stability dG: -0.005
- mutant.id: "L13G"
  units: "kcal/mol"
  folding stability dG: 1.16
- mutant.id: "R15V"
  units: "kcal/mol"
  folding stability dG: 2.08
- mutant.id: "S1I"
  units: "kcal/mol"
  folding stability dG: 1.22
- mutant.id: "H30A"
  units: "kcal/mol"
  folding stability dG: 2.04
- mutant.id: "F26A"
  units: "kcal/mol"
  folding stability dG: 0.696
- mutant.id: "H29C"
  units: "kcal/mol"
  folding stability dG: 1.85
- mutant.id: "I35H"
  units: "kcal/mol"
  folding stability dG: 0.843
- mutant.id: "R39T"
  units: "kcal/mol"
  folding stability dG: 1.37
- mutant.id: "V34E"
  units: "kcal/mol"
  folding stability dG: 0.228
